Data credit: PubChem BioAssay AID1845212

So I've got a bunch of molecules here, and I need their viability, T/C values.
# Test system: NCI-H719 tumor spheroids, viability
# experiment: Anticancer human tumor NCI-H719 cell line growth inhibition;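 further: spheroids exposed to compounds for seven days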;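 on viability, T/C: percent viability relative to DMSO vehicle control as 100%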
# study.conditions: second compound 0.003 µM; first compound 10 µM; stronger effect = lower value; spheroids with HUVEC and MSC
Kindly provide the numeric value in % only, without the unit symbol.

Task: Form entry - test system: NCI-H719 tumor spheroids, viability; read-out: viability, T/C; molecule: [2H]c1nc(C)nc([2H])c1-c1cc(NC[C@@H](C)c2cccc3c(C(=O)NC)ccnc23)ncn1 + COc1cc2c(cc1O)CCNC21CSC2c3c(OC(C)=O)c(C)c4c(c3C(COC1=O)N1C(O)C3Cc5cc(C)c(OC)c(O)c5C(C21)N3C)OCO4
Result: 0.24

Task: Same for CC1COCCN1c1cc(-c2ccnn2C)c2ccnc(-c3ccn[nH]3)c2n1 (stereo not drawn) + CC[C@@]1(O)C(=O)OCc2c1cc1n(c2=O)Cc2cc3c(CN(C)C)c(O)ccc3nc2-1
Result: 7.37

Task: Same for CC(C)n1c(=O)n(C)c2cnc3cc(F)c(-c4ccc(OCCCN5CCCCC5)nc4)cc3c21 + CC[C@@]1(O)C(=O)OCc2c1cc1n(c2=O)Cc2cc3c(CN(C)C)c(O)ccc3nc2-1
Result: 50.5

* * *

# System: NCI-H719 tumor spheroids, viability
# experiment: Anticancer human tumor NCI-H719 cell line growth inhibition;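 further: spheroids exposed to compounds for seven days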;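 on viability, T/C: percent viability relative to DMSO vehicle control as 100%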
# study.conditions: second compound 0.00949 µM; first compound 10 µM; stronger effect = lower value; spheroids with HUVEC and MSC
property.label: viability, T/C (%)
Kindly provide the numeric value in % only, without the unit symbol.

Task: State the recorded viability, T/C for this entry: CC1COCCN1c1cc(-c2ccnn2C)c2ccnc(-c3ccn[nH]3)c2n1 (stereo unspecified) + CC[C@@]1(O)C(=O)OCc2c1cc1n(c2=O)Cc2cc3c(CN(C)C)c(O)ccc3nc2-1
Result: 7.24

Task: Same for Cc1cc(C)c(CNC(=O)c2cc(-c3ccc(CN4CCOCC4)cc3)cc3c2cnn3C2CCCC2)c(=O)[nH]1 + CC[C@@]1(O)C(=O)OCc2c1cc1n(c2=O)Cc2cc3c(CN(C)C)c(O)ccc3nc2-1
Result: 5.13

Task: Same for [2H]c1nc(C)nc([2H])c1-c1cc(NC[C@@H](C)c2cccc3c(C(=O)NC)ccnc23)ncn1 + CC[C@@]1(O)C(=O)OCc2c1cc1n(c2=O)Cc2cc3c(CN(C)C)c(O)ccc3nc2-1
Result: 9.89

Task: Same for CC(C)n1c(=O)n(C)c2cnc3cc(F)c(-c4ccc(OCCCN5CCCCC5)nc4)cc3c21 + CC[C@@]1(O)C(=O)OCc2c1cc1n(c2=O)Cc2cc3c(CN(C)C)c(O)ccc3nc2-1
Result: 12.7

Task: Same for COc1ccc([C@@H](O)c2cc(-c3ncnc4cc(N5CCOCC5)ccc34)c(F)cc2Cl)nn1 + CC[C@@]1(O)C(=O)OCc2c1cc1n(c2=O)Cc2cc3c(CN(C)C)c(O)ccc3nc2-1
Result: 5.88

Task: Same for COc1cc(C)[nH]c(=O)c1CN1CCc2c(Cl)cc(C(OC)C3COC3)c(Cl)c2C1=O (stereo unspecified) + CC[C@@]1(O)C(=O)OCc2c1cc1n(c2=O)Cc2cc3c(CN(C)C)c(O)ccc3nc2-1
Result: 7.67

* * *

# Tested on: NCI-H719 tumor spheroids, viability
# experiment: Anticancer human tumor NCI-H719 cell line growth inhibition;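 further: spheroids exposed to compounds for seven days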
# study.conditions: curve of first compound; second compound 0.003 µM; spheroids with HUVEC and MSC
So I've got a bunch of molecules here, and I need their IC50 values.

Task: State the recorded IC50 for this entry: Cn1ncnc1[C@H]1c2n[nH]c(=O)c3cc(F)cc(c23)N[C@@H]1c1ccc(F)cc1 + COc1cc2c(cc1O)CCNC21CSC2c3c(OC(C)=O)c(C)c4c(c3C(COC1=O)N1C(O)C3Cc5cc(C)c(OC)c(O)c5C(C21)N3C)OCO4
Result: < 9.49 nM

Task: Same for CC(C)n1c(=O)n(C)c2cnc3cc(F)c(-c4ccc(OCCCN5CCCCC5)nc4)cc3c21 + COc1cc2c(cc1O)CCNC21CSC2c3c(OC(C)=O)c(C)c4c(c3C(COC1=O)N1C(O)C3Cc5cc(C)c(OC)c(O)c5C(C21)N3C)OCO4
Result: < 31.6 nM

* * *

So I've got a bunch of molecules here, and I need their viability, T/C values.
# Tested on: NCI-H719 tumor spheroids, viability
# experiment: Anticancer human tumor NCI-H719 cell line growth inhibition;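 further: spheroids exposed to compounds for seven days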;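 on viability, T/C: percent viability relative to DMSO vehicle control as 100%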
# study.conditions: second compound 94.9 pM; first compound 0.949 µM; stronger effect = lower value; spheroids with HUVEC and MSC
# Method: Multicellular complex tumor spheroid response to DNA repair inhibitors in combination with DNA-damaging drugs This study explores the anticancer activities of DNA-damaging drugs and inhibitors of DNA damage repair, both as single agents and in combinations. […] Twenty-six patient-derived or established malignant cell lines were evaluated representing sarcoma, melanoma, small cell lung cancer (SCLC), non-small cell lung cancer (NSCLC), as well as bladder, ovarian and pancreatic cancers. […]

Task: State the recorded viability, T/C for this entry: O=C(c1cc(Cc2n[nH]c(=O)c3ccccc23)ccc1F)N1CCN(C(=O)C2CC2)CC1 + COc1cc2c(cc1O)CCNC21CSC2c3c(OC(C)=O)c(C)c4c(c3C(COC1=O)N1C(O)C3Cc5cc(C)c(OC)c(O)c5C(C21)N3C)OCO4
Result: 14%

Task: Same for Cc1sc2c(c1C)C(c1ccc(Cl)cc1)=NC(CC(=O)Nc1ccc(O)cc1)c1nnc(C)n1-2 (centres undefined) + COc1cc2c(cc1O)CCNC21CSC2c3c(OC(C)=O)c(C)c4c(c3C(COC1=O)N1C(O)C3Cc5cc(C)c(OC)c(O)c5C(C21)N3C)OCO4
Result: 3.48%

Task: Same for CNCc1ccc(-c2cc(-c3nc(-c4ccc(S(=O)(=O)C(C)C)cc4)cnc3N)on2)cc1 + COc1cc2c(cc1O)CCNC21CSC2c3c(OC(C)=O)c(C)c4c(c3C(COC1=O)N1C(O)C3Cc5cc(C)c(OC)c(O)c5C(C21)N3C)OCO4
Result: 9.95%

Task: Same for Cn1ncnc1[C@H]1c2n[nH]c(=O)c3cc(F)cc(c23)N[C@@H]1c1ccc(F)cc1 + COc1cc2c(cc1O)CCNC21CSC2c3c(OC(C)=O)c(C)c4c(c3C(COC1=O)N1C(O)C3Cc5cc(C)c(OC)c(O)c5C(C21)N3C)OCO4
Result: 7.26%

* * *

# Test system: NCI-H719 tumor spheroids, viability
# experiment: Anticancer human tumor NCI-H719 cell line growth inhibition;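 further: spheroids exposed to compounds for seven days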
# study.conditions: curve of first compound; second compound 30 pM; spheroids with HUVEC and MSC
property.label: pIC50
// pIC50: -log10(molar conc.)

Task: State the recorded pIC50 for this entry: COc1ccc([C@@H](O)c2cc(-c3ncnc4cc(N5CCOCC5)ccc34)c(F)cc2Cl)nn1 + COc1cc2c(cc1O)CCNC21CSC2c3c(OC(C)=O)c(C)c4c(c3C(COC1=O)N1C(O)C3Cc5cc(C)c(OC)c(O)c5C(C21)N3C)OCO4
Result: 5.95

Task: Same for O=C(c1cc(Cc2n[nH]c(=O)c3ccccc23)ccc1F)N1CCN(C(=O)C2CC2)CC1 + COc1cc2c(cc1O)CCNC21CSC2c3c(OC(C)=O)c(C)c4c(c3C(COC1=O)N1C(O)C3Cc5cc(C)c(OC)c(O)c5C(C21)N3C)OCO4
Result: 6.45

Task: Same for Cc1sc2c(c1C)C(c1ccc(Cl)cc1)=NC(CC(=O)Nc1ccc(O)cc1)c1nnc(C)n1-2 (stereo unspecified) + COc1cc2c(cc1O)CCNC21CSC2c3c(OC(C)=O)c(C)c4c(c3C(COC1=O)N1C(O)C3Cc5cc(C)c(OC)c(O)c5C(C21)N3C)OCO4
Result: 6.86

Task: Same for CNCc1ccc(-c2cc(-c3nc(-c4ccc(S(=O)(=O)C(C)C)cc4)cnc3N)on2)cc1 + COc1cc2c(cc1O)CCNC21CSC2c3c(OC(C)=O)c(C)c4c(c3C(COC1=O)N1C(O)C3Cc5cc(C)c(OC)c(O)c5C(C21)N3C)OCO4
Result: 7.07

* * *

# System: NCI-H719 tumor spheroids, viability
# experiment: Anticancer human tumor NCI-H719 cell line growth inhibition;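 further: spheroids exposed to compounds for seven days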;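 on viability, T/C: percent viability relative to DMSO vehicle control as 100%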
# study.conditions: second compound 94.9 pM; first compound 3.16 µM; stronger effect = lower value; spheroids with HUVEC and MSC
property.label: viability, T/C (%)
Kindly provide the numeric value in % only, without the unit symbol.

Task: State the recorded viability, T/C for this entry: CC(C)n1c(=O)n(C)c2cnc3cc(F)c(-c4ccc(OCCCN5CCCCC5)nc4)cc3c21 + COc1cc2c(cc1O)CCNC21CSC2c3c(OC(C)=O)c(C)c4c(c3C(COC1=O)N1C(O)C3Cc5cc(C)c(OC)c(O)c5C(C21)N3C)OCO4
Result: 36.5

Task: Same for COc1ccc([C@@H](O)c2cc(-c3ncnc4cc(N5CCOCC5)ccc34)c(F)cc2Cl)nn1 + COc1cc2c(cc1O)CCNC21CSC2c3c(OC(C)=O)c(C)c4c(c3C(COC1=O)N1C(O)C3Cc5cc(C)c(OC)c(O)c5C(C21)N3C)OCO4
Result: 8.27

Task: Same for [2H]c1nc(C)nc([2H])c1-c1cc(NC[C@@H](C)c2cccc3c(C(=O)NC)ccnc23)ncn1 + COc1cc2c(cc1O)CCNC21CSC2c3c(OC(C)=O)c(C)c4c(c3C(COC1=O)N1C(O)C3Cc5cc(C)c(OC)c(O)c5C(C21)N3C)OCO4
Result: 22.1

Task: Same for CC1COCCN1c1cc(-c2ccnn2C)c2ccnc(-c3ccn[nH]3)c2n1 (centres undefined) + COc1cc2c(cc1O)CCNC21CSC2c3c(OC(C)=O)c(C)c4c(c3C(COC1=O)N1C(O)C3Cc5cc(C)c(OC)c(O)c5C(C21)N3C)OCO4
Result: 6.07
